meta.source: PubChem BioAssay (NCI)

Readings of growth for the listed compounds
# Test system: MALME-3M melanoma
# Test Details: NCI-60 one-dose screen, 48 h (100 = growth as untreated, 0 = no growth, -100 = all killed)
# Stated Conditions: 10 µM
Compounds without any hit were thinned out: in the full panel of roughly 83,000, 20% have a hit.
Readout Kind: growth (%)

• CCOC(=O)N1C/C(=C/c2ccc(F)cc2)C(=O)/C(=C/c2ccc(F)cc2)C1 = -36.8
• COc1ccc(-c2nn(-c3cccc(NC(=O)c4ccc(Cl)c(Cl)c4)c3)cc2-c2ccncc2)cc1Cl = 58.4
• Cc1ccc(NC(=O)Nc2c(Cl)cccc2Cl)cn1 = 109
• COc1cc(-c2nc(Nc3nc4ccccc4s3)[nH]c(=O)c2C#N)cc(OC)c1O = 118
• Cc1cc(O)c(C(C)(C)C)cc1Sc1cc(C(C)(C)C)c(O)cc1C = 73.7
• CC(=O)n1c(-c2ccc(Cl)c(Cl)c2)cn(-c2ccc(Cl)cc2)c1=O = 26.6
• CCCC(F)C(=O)O (stereo unspecified) = 103
• O=C1ON=[N+](c2ccc(Cc3ccc([N+]4=NOC(=O)C4CN4CCOCC4)cc3)cc2)C1CN1CCOCC1 (stereo unspecified) = 65.6
• c1ccc([C@H]2CN3CCSC3=N2)cc1 = 92.3
• Cc1ccc(CC#N)cc1C = 121
• Nc1ccccc1NC(=O)CCCCC(=O)Nc1ccc2c(c1)/C(=C/c1ccc[nH]1)C(=O)N2 = 32.9
• COc1cc(NC(=O)CCSc2nc3ccc(Cl)cc3c(=O)n2Cc2ccccc2)cc(OC)c1OC = 84.3
• Nc1nc(Nc2ccccc2)n[nH]1 = 98.5
• c1ccc(CO[C@H]2CO[C@H]3[C@@H]2OC[C@H]3OCc2ccccc2)cc1 = 144
• COc1cc2c(cc1OCCCN1CCN(c3ncnc4ccccc34)CC1)N=CC1CCCN1C2=O (stereo unspecified) = -71.7
• CC/C(=C(/c1ccc(OCCN(C)C)cc1)c1ccc(OC(=O)CCCCCCCCC(=O)c2c(C)[nH]c(/C=C3\N=C(c4ccc[nH]4)C=C3OC)c2C)cc1)c1ccccc1 = 68.1
• CCCCN(CCCC)CCCCCCCCC(O)c1cc2ccccc2c2ccccc12 (stereo unspecified) = 76.8
• COc1ccc2c(c1)/C(=C\c1c[nH]c3ccc(OC)cc13)C(=O)N2 = 91.8
• COc1ccc(/C=C2/CN(C(=O)c3ccc(C)cc3)C/C(=C\c3ccc(OC)cc3)C2=O)cc1 = 91.4
• ClCC#CCSc1ncnc2c1ncn2CC#CCCl = -46.3
• CCCCCCN(CCCCCC)CC(O)c1ccc2c3c(cccc13)CC2 (stereo unspecified) = 71.7
• COC(=O)C1(C)Cc2cc(OC(C)=O)c(OC(C)=O)cc2N1 (stereo unspecified) = 79.7
• CCN1CCN(c2nc3ccccc3c3c(=O)c4ccccc4sc23)CC1 = 52.5
• COc1ccc(Cl)cc1-n1nnc(-c2nc3ccccc3[nH]2)c1N = 63.8
• Fc1ccc(-c2nnc(-c3c(-c4ccc(F)cc4)nc4ccccn34)o2)cc1 = 120
• CCN(CC)CCSCCCNc1c2ccc(Cl)cc2nc2ccc(OC)cc12 = -69.1
• O=C(Nc1nc(-c2ccccc2Cl)cs1)c1cc(-c2ccc(Cl)cc2)nc2ccc(Cl)cc12 = 41.5
• N=C(N)c1ccc(-c2ccc(-c3ccccc3)o2)nc1 = 91.9
• S=C1SCC(c2ccccc2)S1 (stereo unspecified) = 118
• CC(C)(C)c1ccc(N2CSC(=S)N(c3ccc(C(C)(C)C)cc3)C2)cc1 = 85.8
• COc1cc(CNCCCCCCN2C(=O)c3cccc4cccc(c34)C2=O)ccc1O = 36.3
• CCOC(=O)C(NC(=O)C(Cl)Cl)C(O)c1ccccc1 (stereo unspecified) = 108
• N#CCCN1C/C(=C/c2ccccc2)C(=O)/C(=C/c2ccccc2)C1 = -28.7
• COc1ccc(-c2cc(/C=C/C(=O)c3cc(OC)c(OC)c(OC)c3)[nH]n2)cc1OC = -17.5
• Nc1ncnc2[nH]c(=O)[nH]c12 = 104
• O=C(Nc1nc2ccccc2s1)Nc1ccc([N+](=O)[O-])cc1Cl = 96.4
